Parameter: log10(IC50). Scope: all listed entries.
- MEASUREMENT NOTES: Cytotoxicity against human HCT116/VM46 cells assessed as reduction in cell viability after 72 hrs by phosphatase assay
- Type: cell-based
- MEASUREMENT SETUP: HCT-116/VM46, 72 h
ENDPOINT LABEL: log10(IC50) (log10 of the value in µM)

* CC[C@]1(NC(=O)c2ccc3c(c2)CCN3C(=O)OC(C)(C)C)C[C@H]2CN(CCc3c([nH]c4ccccc34)[C@@](C(=O)OC)(c3cc4c(cc3OC)N(C)[C@H]3[C@@](O)(C(=O)OC)[C@H](OC(C)=O)[C@]5(CC)C=CCN6CC[C@]43[C@@H]65)C2)C1 | -1.05
* CC[C@]1(NC(=O)c2ccc(OC)c(Cl)c2)C[C@H]2CN(CCc3c([nH]c4ccccc34)[C@@](C(=O)OC)(c3cc4c(cc3OC)N(C)[C@H]3[C@@](O)(C(=O)OC)[C@H](OC(C)=O)[C@]5(CC)C=CCN6CC[C@]43[C@@H]65)C2)C1 | -2.05
* CC[C@]1(NC(=O)c2cccc(C(C)C)c2)C[C@H]2CN(CCc3c([nH]c4ccccc34)[C@@](C(=O)OC)(c3cc4c(cc3OC)N(C)[C@H]3[C@@](O)(C(=O)OC)[C@H](OC(C)=O)[C@]5(CC)C=CCN6CC[C@]43[C@@H]65)C2)C1 | -1.19
* CC[C@]1(NC(=O)c2ccc3c(c2)OCCN3C)C[C@H]2CN(CCc3c([nH]c4ccccc34)[C@@](C(=O)OC)(c3cc4c(cc3OC)N(C)[C@H]3[C@@](O)(C(=O)OC)[C@H](OC(C)=O)[C@]5(CC)C=CCN6CC[C@]43[C@@H]65)C2)C1 | -2.31
* CC[C@]1(NC(=O)C2CCN(C(=O)OC(C)(C)C)CC2)C[C@H]2CN(CCc3c([nH]c4ccccc34)[C@@](C(=O)OC)(c3cc4c(cc3OC)N(C)[C@H]3[C@@](O)(C(=O)OC)[C@H](OC(C)=O)[C@]5(CC)C=CCN6CC[C@]43[C@@H]65)C2)C1 | -0.30
* CC[C@]1(NC(=O)c2ccc([N+](=O)[O-])cc2)C[C@H]2CN(CCc3c([nH]c4ccccc34)[C@@](C(=O)OC)(c3cc4c(cc3OC)N(C)[C@H]3[C@@](O)(C(=O)OC)[C@H](OC(C)=O)[C@]5(CC)C=CCN6CC[C@]43[C@@H]65)C2)C1 | -1.22
* CC[C@]1(NC(=O)c2ccsc2)C[C@H]2CN(CCc3c([nH]c4ccccc34)[C@@](C(=O)OC)(c3cc4c(cc3OC)N(C)[C@H]3[C@@](O)(C(=O)OC)[C@H](OC(C)=O)[C@]5(CC)C=CCN6CC[C@]43[C@@H]65)C2)C1 | -2.11
* CC[C@]1(NC(=O)c2ccc3sccc3c2)C[C@H]2CN(CCc3c([nH]c4ccccc34)[C@@](C(=O)OC)(c3cc4c(cc3OC)N(C)[C@H]3[C@@](O)(C(=O)OC)[C@H](OC(C)=O)[C@]5(CC)C=CCN6CC[C@]43[C@@H]65)C2)C1 | -1.80
